Recorded values, source patent US10821115B2.

# target-entity: recombinant human Mcl-1 (residues 171-327) / Bim interaction (Homo sapiens (Human), UniProt Q07820)
# Sequence (Q07820 171-327): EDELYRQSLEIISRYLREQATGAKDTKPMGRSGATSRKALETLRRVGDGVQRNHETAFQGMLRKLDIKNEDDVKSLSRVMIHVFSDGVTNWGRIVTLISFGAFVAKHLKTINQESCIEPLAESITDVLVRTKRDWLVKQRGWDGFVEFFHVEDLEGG
# assay-procedure: biochemical
# Assay type: binding
# conditions: TR-FRET, Mcl-1(171-327) / biotin-Bim (51-76); read-out: Mcl-1 HTRF IC50
Just a reminder that ties go to No: only IC50 strictly below 0.4 nM counts as Yes.

[Q] is_below(IC50, 0.4 nM) for C[C@@H]1[C@@H](C)C/C=C/[C@@](O)(CC2=NC(C)(C)CO2)[C@@H]2CC[C@H]2CN2C[C@@]3(CCCc4cc(Cl)ccc43)COc3ccc(cc32)C(=O)NS1(=O)=O [Example 100346] ?
[A] No

[Q] is_below(IC50, 0.4 nM) for C[C@@H]1[C@@H](C)C/C=C/[C@](O)(c2nccn2C)[C@@H]2CC[C@H]2CN2C[C@@]3(CCCc4cc(Cl)ccc43)COc3ccc(cc32)C(=O)NS1(=O)=O [Example 100186] ?
[A] Yes

[Q] is_below(IC50, 0.4 nM) for CO[C@@H](C[C@]1(OC)/C=C/C[C@H](C)[C@@H](C)S(=O)(=O)NC(=O)c2ccc3c(c2)N(C[C@@H]2CC[C@H]21)C[C@@]1(CCCc2cc(Cl)ccc21)CO3)C1CC1 [Example 100463] ?
[A] Yes

[Q] is_below(IC50, 0.4 nM) for CO[C@@]1([C@H](C)O)CCC[C@H](C)[C@@H](C)S(=O)(=O)NC(=O)c2ccc3c(c2)N(C[C@@H]2CC[C@H]21)C[C@@]1(CCCc2cc(Cl)ccc21)CO3 (single isomer, unassigned) [Example 100482] ?
[A] Yes

[Q] is_below(IC50, 0.4 nM) for C[C@@H]1[C@@H](C)C/C=C/[C@@](O)(c2ncccc2F)[C@@H]2CC[C@H]2CN2C[C@@]3(CCCc4cc(Cl)ccc43)COc3ccc(cc32)C(=O)NS1(=O)=O (single isomer, unassigned) [Example 100390] ?
[A] Yes

----------
Please go through the items and note down their IC50.
# target-entity: recombinant human Mcl-1 (residues 171-327) / Bim interaction (Homo sapiens (Human))
# assay-procedure: biochemical
# Format: binding
# conditions: TR-FRET, Mcl-1(171-327) / biotin-Bim (51-76); read-out: Mcl-1 HTRF IC50
Give the value, in units of nM, as a plain number.

[Q] Can you share its IC50? I mean this compound: "CO[C@@]1(CC(=O)c2ccccn2)/C=C/C[C@H](C)[C@@H](C)S(=O)(=O)NC(=O)c2ccc3c(c2)N(C[C@@H]2CC[C@H]21)C[C@@]1(CCCc2cc(Cl)ccc21)CO3"
[A] 0.208

[Q] Can you share its IC50? I mean this compound: "CNC(=O)C[C@]1(OC)/C=C/C[C@H](C)[C@@H](C)S(=O)(=O)NC(=O)c2ccc3c(c2)N(C[C@@H]2CC[C@H]21)C[C@@]1(CCCc2cc(Cl)ccc21)CO3"
[A] 0.128

[Q] Can you share its IC50? I mean this compound: C[C@@H]1[C@@H](C)C/C=C/[C@@](CO)(OCC(F)(F)F)[C@@H]2CC[C@H]2CN2C[C@@]3(CCCc4cc(Cl)ccc43)COc3ccc(cc32)C(=O)NS1(=O)=O (single isomer, unassigned)
[A] 0.723
